# target_under_test: GABAa receptor
# assay_overview: Inhibition of 3H-RO15-1788 (3H-Flumazenil) binding to rat cortical tissue (GABAa receptor assay)
# test_context: prior art compound, assay described above; unit inferred
# Procedure: Assays are carried out as described in Thomas and Tallman (J. Bio. Chem. 156: 9838-9842, J. Neurosci. 3:433-440, 1983). Rat cortical tissue is dissected and homogenized in 25 volumes (w/v) of 0.05M Tris HCl buffer (pH 7.4 at 4° C.). The tissue homogenate is centrifuged in the cold (4° C.) at 20,000×g for 20 minutes. The supernatant is decanted and the pellet is rehomogenized in the same volume of buffer and again centrifuged at 20,000× g. […]
pIC50: −log10 of the molar value.
property_measured: pIC50

Task item: Look up pIC50 for this compound: "Cn1c(=O)c2nc(-c3ccccc3)oc2c2ccccc21"
Reply: ~4.30
